The origin of these recorded values is patent US20230263822A1.

- System: blood coagulation
- test_summary: PT and aPTT assay in cynomolgus monkeys (Example 45)
- Type: in vivo
- test_context: day 15; escalating dose regimen; platelet poor plasma
measured_metric: aPTT ratio (INR)
One number for each entry.

Worked examples follow.
substance	aPTT ratio (INR)
ISIS 417002: MOE gapmer, nucleobases 1275 to 1318 of SEQ ID NO: 1 (Table 8) (antisense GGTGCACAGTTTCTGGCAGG; MOE gapmer, wing and gap sizes not given here)	1.03
ISIS 416864: MOE gapmer, nucleobases 1275 to 1318 of SEQ ID NO: 1 (Table 8) (antisense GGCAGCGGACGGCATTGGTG; MOE gapmer, wing and gap sizes not given here)	1.03
ISIS 416838: MOE gapmer, nucleobases 1018 to 1042 of SEQ ID NO: 1 (Table 6) (antisense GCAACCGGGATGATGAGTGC; MOE gapmer, wing and gap sizes not given here)	1.05
ISIS 416850: MOE gapmer, nucleobases 1275 to 1318 of SEQ ID NO: 1 (Table 8) (antisense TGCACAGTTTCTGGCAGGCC; MOE gapmer, wing and gap sizes not given here)	1.05

Please find the next substance below.
// substance ISIS 416858: MOE gapmer, nucleobases 1275 to 1318 of SEQ ID NO: 1 (Table 8) (antisense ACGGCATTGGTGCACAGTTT; MOE gapmer, wing and gap sizes not given here) , assay blood coagulation, aPTT ratio (INR) value: 1.07

---

- test_summary: Tolerability in CD1 mice: liver function, ALT, AST, bilirubin, albumin (Example 33)
- test_context: plasma, 50 mg/kg s.c. twice a week, 2 weeks
Can you tell me ALT for the items I'm about to list?
Numbers only, in IU/L.

Give ALT for all substances that follow.
1. ISIS 416838: MOE gapmer, nucleobases 1018 to 1042 of SEQ ID NO: 1 (Table 6) (antisense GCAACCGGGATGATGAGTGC; MOE gapmer, wing and gap sizes not given here)
2. ISIS 417002: MOE gapmer, nucleobases 1275 to 1318 of SEQ ID NO: 1 (Table 8) (antisense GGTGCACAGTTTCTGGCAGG; MOE gapmer, wing and gap sizes not given here)

1. 61
2. 71

Give ALT for all substances that follow.
1. ISIS 416864: MOE gapmer, nucleobases 1275 to 1318 of SEQ ID NO: 1 (Table 8) (antisense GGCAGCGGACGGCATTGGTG; MOE gapmer, wing and gap sizes not given here)
2. ISIS 416850: MOE gapmer, nucleobases 1275 to 1318 of SEQ ID NO: 1 (Table 8) (antisense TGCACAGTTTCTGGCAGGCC; MOE gapmer, wing and gap sizes not given here)
3. ISIS 416858: MOE gapmer, nucleobases 1275 to 1318 of SEQ ID NO: 1 (Table 8) (antisense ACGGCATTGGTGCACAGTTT; MOE gapmer, wing and gap sizes not given here)

[44, 67, 190]

---

- Tested on: blood coagulation
- test_summary: PT and aPTT assay in cynomolgus monkeys (Example 45)
- Type: in vivo
- test_context: day 15; escalating dose regimen; platelet poor plasma
measured_metric: PT ratio (INR)

Worked examples follow.
substance	PT ratio (INR)
ISIS 416864: MOE gapmer, nucleobases 1275 to 1318 of SEQ ID NO: 1 (Table 8) (antisense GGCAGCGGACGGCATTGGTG; MOE gapmer, wing and gap sizes not given here)	1.07
ISIS 416850: MOE gapmer, nucleobases 1275 to 1318 of SEQ ID NO: 1 (Table 8) (antisense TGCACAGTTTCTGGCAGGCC; MOE gapmer, wing and gap sizes not given here)	1.02
ISIS 417002: MOE gapmer, nucleobases 1275 to 1318 of SEQ ID NO: 1 (Table 8) (antisense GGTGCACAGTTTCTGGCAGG; MOE gapmer, wing and gap sizes not given here)	1.04

Give PT ratio (INR) for all substances that follow.
1. ISIS 416858: MOE gapmer, nucleobases 1275 to 1318 of SEQ ID NO: 1 (Table 8) (antisense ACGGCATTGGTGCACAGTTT; MOE gapmer, wing and gap sizes not given here)
2. ISIS 416838: MOE gapmer, nucleobases 1018 to 1042 of SEQ ID NO: 1 (Table 6) (antisense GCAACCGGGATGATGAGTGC; MOE gapmer, wing and gap sizes not given here)

[1.07, 1.03]
